# target_or_test_system: native mouse MET on living mouse cells (mouse, UniProt P16056 25-1379)
# assay_overview: cell-based or functional assay
test_readout: cell scattering score, MLP29, 0.333 nM
Write the quantity with the unit trailing the number.

Q: Please look up its cell scattering score, MLP29, 0.333 nM: chimeric llama-human IgG1 mAb 76H10 (antibody, V domains shown) VH: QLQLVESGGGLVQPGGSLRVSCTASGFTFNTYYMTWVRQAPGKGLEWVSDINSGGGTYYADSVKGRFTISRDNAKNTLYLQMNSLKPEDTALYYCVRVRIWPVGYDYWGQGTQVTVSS VL: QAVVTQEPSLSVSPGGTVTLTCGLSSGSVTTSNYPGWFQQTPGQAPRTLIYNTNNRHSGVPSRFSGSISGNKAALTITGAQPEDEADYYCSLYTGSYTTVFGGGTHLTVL
Ans: 0 score 0-4

Q: Please look up its cell scattering score, MLP29, 0.333 nM: chimeric llama-human IgG1 mAb 74C8 (antibody, V domains shown) VH: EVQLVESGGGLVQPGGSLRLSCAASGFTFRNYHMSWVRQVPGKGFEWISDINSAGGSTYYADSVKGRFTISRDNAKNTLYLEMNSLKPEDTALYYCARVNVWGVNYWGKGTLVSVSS VL: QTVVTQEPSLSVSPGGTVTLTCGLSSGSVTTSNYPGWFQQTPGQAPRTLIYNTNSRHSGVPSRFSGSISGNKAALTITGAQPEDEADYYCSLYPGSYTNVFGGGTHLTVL
Ans: 3 score 0-4

Q: Please look up its cell scattering score, MLP29, 0.333 nM: chimeric llama-human IgG1 mAb 76G7 (antibody, V domains shown) VH: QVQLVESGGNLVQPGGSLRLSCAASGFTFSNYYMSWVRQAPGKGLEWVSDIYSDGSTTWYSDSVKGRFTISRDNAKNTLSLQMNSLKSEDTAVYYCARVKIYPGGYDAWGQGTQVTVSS VL: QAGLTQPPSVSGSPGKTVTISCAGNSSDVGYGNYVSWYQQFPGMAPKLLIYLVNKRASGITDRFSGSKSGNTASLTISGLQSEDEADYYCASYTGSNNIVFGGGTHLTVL
Ans: 0 score 0-4

Q: Please look up its cell scattering score, MLP29, 0.333 nM: chimeric llama-human IgG1 mAb 71D6 (antibody, V domains shown) VH: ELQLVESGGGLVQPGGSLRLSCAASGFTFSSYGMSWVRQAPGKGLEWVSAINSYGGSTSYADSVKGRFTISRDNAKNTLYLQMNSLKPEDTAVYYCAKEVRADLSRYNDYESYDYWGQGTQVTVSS VL: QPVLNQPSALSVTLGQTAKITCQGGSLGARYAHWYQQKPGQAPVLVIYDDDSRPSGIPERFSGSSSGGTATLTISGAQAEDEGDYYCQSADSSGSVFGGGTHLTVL
Ans: 4 score 0-4

Q: Please look up its cell scattering score, MLP29, 0.333 nM: chimeric llama-human IgG1 mAb 71D4 (antibody, V domains shown) VH: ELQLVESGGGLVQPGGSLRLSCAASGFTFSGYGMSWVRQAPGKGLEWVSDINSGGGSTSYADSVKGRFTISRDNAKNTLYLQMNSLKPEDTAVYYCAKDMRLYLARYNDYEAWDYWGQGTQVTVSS VL: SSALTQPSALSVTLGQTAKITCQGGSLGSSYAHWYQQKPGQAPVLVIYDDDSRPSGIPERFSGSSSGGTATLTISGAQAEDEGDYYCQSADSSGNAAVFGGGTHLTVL
Ans: 0 score 0-4
